- System: Staphylococcus aureus
- ASSAY_NOTES: In vitro minimum inhibitory concentration against Staphylococcus aureus SN 43.
- Assay type: functional
For each entry below, report its MIC value.
Give bare numbers, in µg/mL.

// solved cases for MIC follow
Which MIC reading was recorded for the molecule `C[C@@H](O)[C@H]1C(=O)N2C(C(=O)O)=C(S[C@@H]3CN[C@H](C(=O)N(C)C)C3)[C@H](C)[C@H]12` ?
25

Then this molecule: `C[C@@H](O)[C@H]1C(=O)N2C(C(=O)O)=C(COc3cncc(Cl)c3)S[C@H]12`
50

Next, consider the following molecule.
Which MIC reading was recorded for the molecule CC(O)[C@H]1C(=O)N2C(C(=O)O)=C(SCCNC=N)C[C@H]12.O (single isomer, unassigned) ?
25

---

For each entry below, report its MIC value.
- Test system: Staphylococcus aureus
- ASSAY_NOTES: In vitro minimum inhibitory concentration against Staphylococcus aureus COL.
- Type: functional
Give bare numbers, in µg/mL.

// solved cases for MIC follow
API: value(readout= MIC, system= Staphylococcus aureus, query= `C[C@@H](O)[C@H]1C(=O)N2C(C(=O)O)=C(COC(=O)c3cnc4ccccc4c3)S[C@H]12` )
6.25

Then this compound: `C[C@@H](O)[C@H]1C(=O)N2C(C(=O)O)=C(COc3cncc4ccccc34)S[C@H]12`
6.25

Then this compound: `C[C@@H](O)[C@H]1C(=O)N2C(C(=O)O)=C(COC(=O)c3cn(C4CC4)c4cc(N5CCNCC5)c(F)cc4c3=O)S[C@H]12`
6.25

Then this compound: `C[C@@H](O)[C@H]1C(=O)N2C(C(=O)O)=C(COc3cccnc3)S[C@H]12`
100

Then this compound: `C[C@@H](O)[C@H]1C(=O)N2C(C(=O)O)=C(COC(=O)c3cccnc3)S[C@H]12`
50

Please give MIC for each item listed below.
1. C[C@@H](O)[C@H]1C(=O)N2C(C(=O)O)=C(S[C@@H]3CN[C@H](C(=O)N(C)C)C3)[C@H](C)[C@H]12
2. C[C@@H](O)[C@H]1C(=O)N2C(C(=O)O)=C(COC(=O)c3ccc4ccc5ccccc5c4c3)S[C@H]12
3. CC(O)[C@H]1C(=O)N2C(C(=O)O)=C(SCCNC=N)C[C@H]12.O (single isomer, unassigned)
4. C[C@@H](O)[C@H]1C(=O)N2C(C(=O)O)=C(COC(=O)c3ccccc3)S[C@H]12
5. C[C@@H](O)[C@H]1C(=O)N2C(C(=O)O)=C(COc3cnccn3)S[C@H]12

1: 100; 2: 6.25; 3: 25; 4: 25; 5: 100

---

- Tested on: Staphylococcus aureus
- ASSAY_NOTES: In vitro minimum inhibitory concentration against Staphylococcus aureus SN 43.
- Type: functional
For each entry below, report its MIC value.

Which MIC reading was recorded for the compound `C[C@@H](O)[C@H]1C(=O)N2C(C(=O)O)=C(COc3cnccn3)S[C@H]12` ?
> 100 µg/mL

Then this compound: `COc1cccc(OC)c1C(=O)N[C@@H]1C(=O)N2[C@@H]1SC(C)(C)[C@@H]2C(=O)O`
> 100 µg/mL

Next, consider the following compound.
Which MIC reading was recorded for the compound `C[C@@H](O)[C@H]1C(=O)N2C(C(=O)O)=C(COC(=O)c3cnccn3)S[C@H]12` ?
> 100 µg/mL

All figures here come from ChEMBL document CHEMBL1151495.
